Source of measurements: patent US5495032A

System: X. maltophilia NEMC 87210
ASSAY NAME: MIC, agar dilution method
Format: cell-based
CONDITION DESCRIPTION: Stenotrophomonas maltophilia, NEMC87210, 18 h, 18 hours at 35° C.
Structures can show the parent of a compound that is named as a salt.
PROPERTY NAME: MIC (µg/mL)
Give bare numbers, in µg/mL.

Sample answers from the record:
COMPOUND: CCCCCNCC(=O)Nc1c(Cl)cc2c(c1O)C(=O)C1=C(O)[C@]3(O)C(=O)C(C(N)=O)=C(O)[C@@H](N(C)C)C3CC1C2 (stereo partly shown) [H, dihydrochloride]
REPORTED MEASUREMENT: 4
//
COMPOUND: CN(C)CC(=O)Nc1c(Cl)cc2c(c1O)C(=O)C1=C(O)[C@]3(O)C(=O)C(C(N)=O)=C(O)[C@@H](N(C)C)C3CC1C2 (stereo partly shown)
REPORTED MEASUREMENT: 2
//
COMPOUND: CN(C)c1ccc(O)c2c1C[C@H]1C[C@H]3[C@H](N(C)C)C(O)=C(C(N)=O)C(=O)[C@@]3(O)C(O)=C1C2=O [L, Minocycline, reference compound]
REPORTED MEASUREMENT: 0.25
//
COMPOUND: CNCC(=O)Nc1c(Cl)cc2c(c1O)C(=O)C1=C(O)[C@]3(O)C(=O)C(C(N)=O)=C(O)[C@@H](N(C)C)C3CC1C2 (stereo partly shown) [I, dihydrochloride]
REPORTED MEASUREMENT: 16
//
COMPOUND: CN(C)[C@@H]1C(O)=C(C(N)=O)C(=O)[C@@]2(O)C(O)=C3C(=O)c4c(O)cccc4[C@@](C)(O)[C@H]3C[C@@H]12
REPORTED MEASUREMENT: 8

Please give MIC for each item listed below.
1. CN(C)[C@@H]1C(O)=C(C(N)=O)C(=O)[C@@]2(O)C(O)=C3C(=O)c4c(cc(Cl)c(NC(=O)CN5CCCC5)c4O)CC3CC12 (stereo partly shown) [E, dihydrochloride]
2. CCCCNCC(=O)Nc1c(Cl)cc2c(c1O)C(=O)C1=C(O)[C@]3(O)C(=O)C(C(N)=O)=C(O)[C@@H](N(C)C)C3CC1C2 (stereo partly shown) [D, dihydrochloride]

A:
1. 1
2. 4

====

Tested on: S. mariescens FPOR 8733
ASSAY NAME: MIC, agar dilution method
Type: cell-based
CONDITION DESCRIPTION: 18 h, 18 hours at 35° C.
Counter-ions that a name gives are not always drawn.
PROPERTY NAME: MIC (µg/mL)
One number for each entry, in µg/mL.

Some compounds with recorded MIC:
COMPOUND: CN(C)[C@@H]1C(O)=C(C(N)=O)C(=O)[C@@]2(O)C(O)=C3C(=O)c4c(cc(Cl)c(NC(=O)CN5CCCC5)c4O)CC3CC12 (stereo partly drawn) [E, dihydrochloride]
TESTED TARGET: S. mariescens FPOR 8733
MIC, µg/mL: 8
--
COMPOUND: CN(C)CC(=O)Nc1c(Cl)cc2c(c1O)C(=O)C1=C(O)[C@]3(O)C(=O)C(C(N)=O)=C(O)[C@@H](N(C)C)C3CC1C2 (stereo partly drawn)
TESTED TARGET: S. mariescens FPOR 8733
MIC, µg/mL: 16

Q: Data request, read-out MIC, for CCCCCNCC(=O)Nc1c(Cl)cc2c(c1O)C(=O)C1=C(O)[C@]3(O)C(=O)C(C(N)=O)=C(O)[C@@H](N(C)C)C3CC1C2 (stereo partly drawn) [H, dihydrochloride]
A: 16
